test system: basal cells and pyramidal cells of the airway epithelium; assay: miRNA expression in sorted basal cells versus pyramidal cells (ciliated + secretory), HTS and Agilent chips; design: species or system human; conditions: basal cells
measured_endpoint: Intensity of the level of expression in log2 in basal cells (323(+)) (log2)

hsa-miR-365: human miRNA, SEQ ID No. 41 (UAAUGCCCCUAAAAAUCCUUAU; expressed or natural sequence; listed as Homo sapiens) | 4.83
hsa-miR-203: human miRNA, SEQ ID No. 19 (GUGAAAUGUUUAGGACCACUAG; expressed or natural sequence; listed as Homo sapiens) | 3.64
hsa-miR-22: human miRNA, SEQ ID No. 23 (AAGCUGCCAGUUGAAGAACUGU; expressed or natural sequence; listed as Homo sapiens) | 8.81
hsa-let-7f: human miRNA, SEQ ID No. 161 (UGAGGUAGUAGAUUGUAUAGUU; expressed or natural sequence; listed as Homo sapiens) | 10.82
hsa-miR-26b: human miRNA, SEQ ID No. 29 (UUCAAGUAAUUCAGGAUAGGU; expressed or natural sequence; listed as Homo sapiens) | 8.75
